targetDesc: E. coli Topo IV (Escherichia coli)
Construct: purchased Inspiralis (Norwich, UK)
Sequence (P0AFI2 whole entry): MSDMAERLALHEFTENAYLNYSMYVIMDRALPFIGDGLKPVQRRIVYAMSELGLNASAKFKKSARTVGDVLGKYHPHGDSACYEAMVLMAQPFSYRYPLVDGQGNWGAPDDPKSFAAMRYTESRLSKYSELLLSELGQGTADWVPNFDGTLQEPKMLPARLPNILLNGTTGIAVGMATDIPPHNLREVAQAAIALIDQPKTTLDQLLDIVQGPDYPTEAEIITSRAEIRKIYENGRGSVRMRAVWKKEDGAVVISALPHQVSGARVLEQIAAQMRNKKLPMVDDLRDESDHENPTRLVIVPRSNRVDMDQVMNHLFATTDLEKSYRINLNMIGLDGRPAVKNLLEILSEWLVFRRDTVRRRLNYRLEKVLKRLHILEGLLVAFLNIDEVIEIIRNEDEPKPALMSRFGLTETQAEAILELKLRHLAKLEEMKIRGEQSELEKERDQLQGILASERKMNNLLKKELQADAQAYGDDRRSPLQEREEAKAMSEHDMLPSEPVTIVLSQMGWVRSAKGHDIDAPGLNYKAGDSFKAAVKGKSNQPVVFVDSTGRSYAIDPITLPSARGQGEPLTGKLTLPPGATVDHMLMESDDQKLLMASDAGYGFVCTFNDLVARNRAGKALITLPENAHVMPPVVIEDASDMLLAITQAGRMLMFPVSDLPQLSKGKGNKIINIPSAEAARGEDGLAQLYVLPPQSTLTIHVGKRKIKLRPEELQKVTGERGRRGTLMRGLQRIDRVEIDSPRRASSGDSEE
Sequence (P20083 whole entry, further chain): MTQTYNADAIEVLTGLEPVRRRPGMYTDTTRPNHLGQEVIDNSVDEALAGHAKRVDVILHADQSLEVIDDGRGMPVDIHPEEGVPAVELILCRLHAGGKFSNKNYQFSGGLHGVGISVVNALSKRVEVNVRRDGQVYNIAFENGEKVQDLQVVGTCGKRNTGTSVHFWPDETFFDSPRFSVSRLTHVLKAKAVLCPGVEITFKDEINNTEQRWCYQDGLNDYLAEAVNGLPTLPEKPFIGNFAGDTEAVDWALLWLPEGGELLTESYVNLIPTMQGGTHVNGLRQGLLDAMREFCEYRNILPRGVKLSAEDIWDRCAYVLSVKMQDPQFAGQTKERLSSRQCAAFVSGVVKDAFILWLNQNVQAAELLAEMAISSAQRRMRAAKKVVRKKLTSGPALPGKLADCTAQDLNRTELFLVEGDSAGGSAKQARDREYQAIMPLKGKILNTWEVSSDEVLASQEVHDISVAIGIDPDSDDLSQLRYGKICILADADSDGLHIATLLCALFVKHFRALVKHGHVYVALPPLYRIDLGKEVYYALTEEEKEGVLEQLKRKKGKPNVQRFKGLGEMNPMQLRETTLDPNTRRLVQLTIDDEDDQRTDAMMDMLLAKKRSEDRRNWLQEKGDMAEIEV
method: Topo IV Relaxation High Throughput Plate assay, E. coli
Format: biochemical
We label by threshold. Values of IC50 strictly beneath 300 nM are satisfied. Values of 300 nM and up are not satisfied.

Dear colleague, could you confirm whether IC50 of COc1ccc2nccc(CCN3CCC(NCc4cnn(-c5ccc(F)cc5)c4)CC3)c2n1 [Compound 4] falls below 300 nM? Thanks.
satisfied

Dear colleague, could you confirm whether IC50 of COc1ccc2nccc(CCN3CCC(NCc4ccccc4)CC3)c2n1 [Compound 11] falls below 300 nM? Thanks.
not satisfied

Dear colleague, could you confirm whether IC50 of COc1ccc2nccc(CCN3CCC(NCc4ccc(C(N)=O)cc4)CC3)c2n1 [Compound 17] falls below 300 nM? Thanks.
not satisfied

Dear colleague, could you confirm whether IC50 of COc1ccc2nccc(CCN3CCC(NCc4ccc(OC(F)F)c(O)c4)CC3)c2n1 [Compound 20] falls below 300 nM? Thanks.
satisfied

Dear colleague, could you confirm whether IC50 of COc1ccc2nccc(CCN3CCC(NCc4cnn(C(C)C)c4)CC3)c2n1 [Compound 9] falls below 300 nM? Thanks.
satisfied

Dear colleague, could you confirm whether IC50 of COc1ccc2nccc(CCN3CCC(NCc4ccc(OC(F)F)c(OC)c4)CC3)c2n1 [Compound 19] falls below 300 nM? Thanks.
satisfied

Dear colleague, could you confirm whether IC50 of COc1ccc2nccc(CCN3CCC(NCc4ccc(N(C)C)cc4)CC3)c2n1 [Compound 18] falls below 300 nM? Thanks.
not satisfied

Dear colleague, could you confirm whether IC50 of COc1ccc2nccc(CCN3CCC(NCc4ccc(F)cc4)CC3)c2n1 [Compound 12] falls below 300 nM? Thanks.
satisfied

Dear colleague, could you confirm whether IC50 of C=CCn1cc(CNC2CCN(CCc3ccnc4ccc(OC)nc34)CC2)cn1 [Compound 10] falls below 300 nM? Thanks.
satisfied

Dear colleague, could you confirm whether IC50 of COc1ccc2nccc(CCN3CCC(NC(=O)c4cn5cccc(C#N)c5n4)CC3)c2n1 [Compound 7] falls below 300 nM? Thanks.
not satisfied

Dear colleague, could you confirm whether IC50 of COc1ccc2nccc(CCN3CCC(NCc4nc5ccccc5n4C)CC3)c2n1 [Compound 3] falls below 300 nM? Thanks.
not satisfied

Dear colleague, could you confirm whether IC50 of COc1ccc2nccc(CCN3CCC(NCc4c(C)nc5c(C)cccn45)CC3)c2n1 [Compound 6] falls below 300 nM? Thanks.
not satisfied
